- assayed_target: Nuclear receptor subfamily 1 group D member 1 (Homo sapiens) (UniProt P20393)
- Sequence (P20393 whole entry, looked up): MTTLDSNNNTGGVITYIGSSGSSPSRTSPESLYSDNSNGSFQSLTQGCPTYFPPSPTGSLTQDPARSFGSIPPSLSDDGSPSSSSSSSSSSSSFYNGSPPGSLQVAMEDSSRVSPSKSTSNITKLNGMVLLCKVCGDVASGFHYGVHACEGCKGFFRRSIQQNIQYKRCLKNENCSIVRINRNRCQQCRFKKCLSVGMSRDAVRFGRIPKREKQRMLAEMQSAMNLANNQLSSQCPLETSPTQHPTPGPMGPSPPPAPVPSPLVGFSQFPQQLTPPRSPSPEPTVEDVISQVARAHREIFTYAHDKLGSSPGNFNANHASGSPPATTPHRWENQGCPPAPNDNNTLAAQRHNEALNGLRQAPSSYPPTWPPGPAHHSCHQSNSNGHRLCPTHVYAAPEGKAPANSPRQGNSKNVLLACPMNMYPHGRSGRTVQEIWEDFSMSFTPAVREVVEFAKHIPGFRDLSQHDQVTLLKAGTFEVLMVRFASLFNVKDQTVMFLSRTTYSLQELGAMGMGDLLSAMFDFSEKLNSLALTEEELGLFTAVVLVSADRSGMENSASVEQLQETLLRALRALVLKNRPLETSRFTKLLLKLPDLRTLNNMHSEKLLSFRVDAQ
- assay_info: modulators of Rev-erb alpha DNA binding, dose response, biochemical, FITC-DNA, fluorescence polarization (AID 1259321)
The source made the active and inactive calls.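 How the source made its calls: active means half-maximal concentration for changing protein binding to DNA, from the fitted dose curve, below 10 micromolar; inactive means the rest.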
Log the outcome using a class from yes (1) = active, no (0) = inactive

Status in this test for "Cc1ccc2[nH]cc(/C=C/c3cc[n+](C)cc3)c2c1" ? no (0)

Status in this test for "CCOC(=O)Cn1c(=NC(=O)c2cccs2)sc2cc(C(=O)OC)ccc21" ? no (0)

Status in this test for CCCCn1c(SC(C)C(=O)NCC2CCCO2)nc2cc(C(=O)OC)ccc2c1=O (stereo not given) ? no (0)

Status in this test for COc1ccccc1-c1ccc2c(c1)C(C)(Cc1cccc(C#N)c1)C(=O)N2 (stereo not given) ? no (0)

Status in this test for "N=C1C(c2nc3ccccc3s2)=C(O)CN1NC(=O)c1c[nH]c2ccccc12" ? yes (1)

Status in this test for "CCCc1cc(=O)oc2cc(C)cc(OCC(=O)Nc3ccc(S(N)(=O)=O)cc3)c12" ? no (0)

Status in this test for "COC(=O)c1sc2nc(-c3ccccc3)c3c(c2c1N)CCCC3" ? no (0)

Status in this test for "Cc1ccc(-n2c(N)c(C#N)c(-c3ccccc3)c(C#N)c2=O)cc1" ? no (0)

Status in this test for "CCOC(=O)c1cc(C(=O)OCC)c2cc(Br)ccc2n1" ? no (0)

Status in this test for "O=C(NCc1ccco1)c1ccc(Cn2c(=O)c3sccc3n(Cc3cccc(F)c3)c2=O)cc1" ? no (0)

----------
- assayed_target: Nuclear receptor subfamily 1 group D member 1 (Homo sapiens)
- assay_info: modulators of Rev-erb alpha DNA binding, dose response, biochemical, FITC-DNA, fluorescence polarization (AID 1259321)
Calls of active or inactive are those of the source.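 The calls were made as follows: active = half-maximal concentration for changing protein binding to DNA, from the fitted dose curve, below 10 micromolar; inactive = the rest.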
assay_metric: IC50

>>> obs_value("COc1cc2[nH]c(=S)nc(NCCc3ccc(C)cc3)c2cc1OC")
"> 40 µM (inactive)"
>>> obs_value("Cc1ccc(C2(C(F)(F)F)NC(=O)N3C(=C2C#N)Nc2ccccc23)cc1 (stereo not given)")
"2.68 µM"
>>> obs_value("Cc1coc2cc3oc(=O)c(Cc4ccccc4)c(C)c3cc12")
"inactive"
>>> obs_value("Cc1cc(=O)oc2cc(OCC(=O)Nc3ccc(S(=O)(=O)N(C)C)cc3)ccc12")
"> 40 µM (inactive)"
>>> obs_value("Cc1ccc2[nH]c(=O)c(CN(C(=O)c3cccs3)c3ccccc3)cc2c1")
"3.81 µM"
>>> obs_value("COC(=O)c1ccc(NC(=O)c2cc(Cl)ccc2OC)cc1")
"inactive"
>>> obs_value("COc1ccc(-c2cc(C3CC3)nc(SCC(=O)c3cccs3)c2C#N)cc1")
"6.69 µM"
>>> obs_value("COc1ccc2nc(SCC(=O)Nc3ccc4sc(C)nc4c3)c(C#N)cc2c1")
"1.98 µM"
>>> obs_value("Cc1nn(-c2ccc(Cl)cc2)c2sc(C(=O)c3c(N)n(C)c(=O)n(C)c3=O)cc12")
"8.34 µM"

Specify reported IC50 for the compound shown: CCC(C)NC(=O)Cc1c(OC)ccc2cc(Br)ccc12 (stereo not given) 8.21 µM

----------
- assayed_target: Nuclear receptor subfamily 1 group D member 1 (Homo sapiens)
- assay_info: modulators of Rev-erb alpha DNA binding, dose response, biochemical, FITC-DNA, fluorescence polarization (AID 1259321)
Activity calls are given as the source filed them.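 Rule for the calls: active = half-maximal concentration for changing protein binding to DNA, from the fitted dose curve, below 10 micromolar; inactive = the rest.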
Log the outcome using a class from active, inactive

Status in this test for "O=C(c1cc2cc(Br)ccc2[nH]1)N1CCc2ccccc21" ? active

Status in this test for "COc1ccc(NC(=O)c2sc3nc(N4CCCC4)c4c(c3c2N)CC(C)(C)OC4)cc1" ? inactive

Status in this test for "COc1ccc(CC(=O)Nc2cc(C)c3c(=O)oc4ccccc4c3n2)cc1" ? active

Status in this test for "CCc1ccc2n(-c3ccc(OC)cc3)c([S-])c(C(=O)Nc3cc(C)cc(C)c3)[n+]2c1" ? active

Status in this test for "COc1ccc2[nH]cc(/C=C/c3cc[n+](C)cc3)c2c1" ? active

Status in this test for "CCc1nc(SCC(=O)NC2CCCC2)c2oc3ccccc3c2n1" ? inactive

Status in this test for "C=CCn1cc(/C=C/c2cc[n+](C)cc2)c2ccccc21" ? inactive

Status in this test for "COC(=O)c1ccc(NC(=O)c2ccc3c(c2)C(=O)N(C)C3=O)cc1" ? active

Status in this test for "Cc1cc(C)c2nc(SCC(=O)Nc3ccccc3N3CCOCC3)c(C#N)cc2c1" ? active

Status in this test for "O=C(CCCn1c(=S)[nH]c2cc3c(cc2c1=O)OCO3)NCc1ccccc1Cl" ? inactive
